test: NCI Yeast Anticancer Drug Screen. Data for the sgs1 mgt1 strain (AID 161);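 further: 0% = growth of cultures given vehicle only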; details: S. cerevisiae sgs1 mgt1 strain, at 50.0 µM, active compounds read high
About 79,000 compounds went through this panel and 15% of them were active in at least one assay; those are over-represented in the sample as a whole. Starred links: 1 amine or outer side, 2 acyl side, 3 side chain; linkers in the order of their positions; H or OH if unused. Positions of bridges follow the written chain, without caps; N, C: chain ends. Non-standard residues stand in square brackets, D forms with d. Residues, ends and D or L forms follow the SMILES beside them. Chains are numbered I, II in the order given. Actinocin(9to1) = Cc1c2oc3c(C)ccc(C(=O)[*:1])c3nc-2c(C(=O)[*:2])c(N)c1=O; aThr = C[C@H](O)[C@H](N)C(=O)O; NMeV = CN[C@H](C(=O)O)C(C)C; Sar = CNCC(=O)O
measurement type: growth inhibition (%)
Please state the figure in %; there is no need to write the unit.

Reported growth inhibition, molecule Cc1c2oc3c(C)ccc(C(=O)N[C@@H]4C(=O)N[C@H](C(C)C)C(=O)N5CCC[C@H]5C(=O)N(C)CC(=O)N(C)[C@@H](C(C)C)C(=O)O[C@H]4C)c3nc-2c(C(=O)N[C@@H]2C(=O)N[C@H](C(C)C)C(=O)N3CCC[C@H]3C(=O)N(C)CC(=O)N(C)[C@@H](C(C)C)C(=O)O[C@H]2C)c(N)c1=O (I: [aThr][dV]P[Sar][NMeV] / II: [aThr][dV]P[Sar][NMeV]; ester I:1-I:C, II:1-II:C; linker I:N-II:N via Actinocin(9to1)) : ____
92.5

* * *

assay: NCI Yeast Anticancer Drug Screen. Data for the mec2-1 strain (AID 157); conditions: S. cerevisiae mec2-1 strain, at 100.0 µM, active compounds read high
This is part of a sample that, as a whole, favours compounds with a hit. Of some 79,000 tested, about 15% had one in any assay.
What growth inhibition was measured for each of the following?
Numeric answer only, unit % assumed.

Given `CCOC(=O)/C(O)=C(/C=N/C(=S)Nc1c(CC)cccc1CC)C(=O)OCC` , state its recorded growth inhibition.
36

What growth inhibition value was documented for this compound, `O=S(=O)(Oc1c(Cl)cc(Cl)cc1Cl)c1ccccc1` ?
13

Return reported growth inhibition; argument: `Cc1ccc(Cl)c2c(=O)c3ccccc3[nH]c12`
11

Give the measured growth inhibition of O=C1c2ccccc2-c2ccc(NC(=O)C3CCCCC3C(=O)O)cc21 (stereo not given) .
67

Which growth inhibition is reported for this compound? `O=C(Cc1ccccc1)c1ccc(O)cc1`
91

# query: growth inhibition of entry `CCCCCC(=O)C(C)(c1nc2n(c1O)/C(=N/C(=O)Nc1ccc(Cl)cc1)N=N2)c1nc2n(c1O)/C(=N/C(=O)Nc1ccc(Cl)cc1)N=N2`
30

Reported growth inhibition, compound CCCCCCCCCCCCOC1C(COCCN2CCCC2)OC2OC(C)(C)OC21 (stereo not given) : ____
98

I'd like to know its growth inhibition. The compound in question is `CC[C@@]1(OC(=O)CN(C)C)C(=O)OCc2c1cc1n(c2=O)Cc2cc3ccccc3nc2-1`
97

Find the recorded growth inhibition belonging to `Cc1ccc(SSc2ccc(C)cc2[N+](=O)[O-])c([N+](=O)[O-])c1` and report it.
86

// returns reported growth inhibition for input `CCN(CC)c1ccc(N=Nc2cc(S(=O)(=O)O)ccc2O)c(O)c1`
22

* * *

Assay: NCI Yeast Anticancer Drug Screen. Data for the rad18 strain (AID 177)
Conditions: S. cerevisiae rad18 mutant growth inhibition; at 33.0 µM; active compounds read high
Method: Growth inhibition of yeast strains with defined genetic alterations is measured as a screen for potential anti-cancer activity. Selected strains with alterations in DNA damage repair or cell cycle control were exposed to compounds and growth inhibition was measured relative to vehicle treated controls. The strain used in this assay is rad18
This is part of a sample that, as a whole, favours compounds with a hit. Of some 79,000 tested, about 15% had one in any assay.
Where growth inhibition equals or exceeds 80%, the correct label is 1.0; where it does not, the label is 0.0.

Is it the case that `O=C(CSS(=O)(=O)O)c1ccccc1` has growth inhibition reaching or exceeding 80%?
1.0

Quick check, growth inhibition >= 80%? CC[N+]1(C)CCC(O)(/C=C/c2ccc(Cl)c(Cl)c2)C(C(=O)/C=C/c2ccc(Cl)c(Cl)c2)C1 (stereo unspecified)
1.0

Confirm if growth inhibition reported for the molecule `CN(C)CCn1c2ccccc2c2nc3cc4ccccc4cc3nc21` is 80% or above.
1.0

Assess whether reported growth inhibition for `Cc1cc(NC(=S)SCc2ccc(Cl)cc2)ccc1Cl` sits at 80% or higher.
1.0

Check if growth inhibition >= 80% (inclusive). Item: `O=C(CCC(=O)c1ccc(O)cc1)Oc1ccc(O)cc1`
0.0

Determine whether this molecule has growth inhibition no lower than 80%: `Nc1c([N+](=O)[O-])cc2c3c(cccc13)CC2`
1.0

Textbook exercise: given the entry `Cc1c2ccncc2c(C)c2c1oc1ccccc12` , state whether its growth inhibition is greater than or equal to 80%.
1.0

Please check the record COc1ccc(/C(=N/O)c2ccccc2C2=Nc3ccccc3C(NCc3ccccc3)O2)cc1C (stereo unspecified) and state if its growth inhibition is at or above 80%.
0.0

State whether the measured growth inhibition reaches 80%, counting equality as reaching it, for `Nc1nc(Nc2ccccc2)nc(Nc2ccccc2)n1`
0.0

Hello, I need to know if `c1cc(Nc2ccc3c(c2)OCO3)c2cc(C3CCCCC3)ccc2n1` has measured growth inhibition not below 80%. Thanks!
0.0

hey, is growth inhibition for this one >= 80%? `CCOC(=O)C1=C(C)NC(C)=C(C(=O)OCC)C1c1cccc([N+](=O)[O-])c1`
0.0

* * *

So I've got a bunch of molecules here, and I need their growth inhibition values.
assay: NCI Yeast Anticancer Drug Screen. Data for the wt2 strain (AID 169);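 further: 0% = growth of vehicle-treated yeast cultures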; conditions: S. cerevisiae wt2 strain growth inhibition; at 11.0 µM; active compounds read high
About 79,000 compounds went through this panel and 15% of them were active in at least one assay; those are over-represented in the sample as a whole.
Write it as a number; the unit % goes unstated.

Query: growth inhibition; subject: `BrC/C=C/C[P+](c1ccccc1)(c1ccccc1)c1ccccc1`
95

Need growth inhibition, item `O=S(=O)(O)c1ccc2c(N=Nc3c(O)ccc4ccccc34)cccc2c1`
13

Can you look up the measured growth inhibition of `COc1ccc2c(C)cc(N/N=C/c3sccc3C)nc2c1` for me?
24

Item `COc1ccc(/C=C2\S/C(=N/Nc3nc(-c4ccccc4)cs3)NC2=O)cc1OC` has what recorded growth inhibition?
97

Need growth inhibition, item `Cc1cccc(N2CCN(C(=O)/C(=C/c3ccccc3)NC(=O)c3ccccc3)CC2)c1`
1

Quick one: growth inhibition of `[O-]c1c2cc(-[n+]3c(-c4ccccc4)cc(-c4ccccc4)cc3-c3ccccc3)cc1COCCOCCOCCOCCOC2` ?
-2

Given the molecule CSc1ccc2c(c1)C(N1CCN(C)CC1)Cc1ccccc1S2 (stereo unspecified) , what is its reported growth inhibition?
-46

Look at this molecule and give its reported growth inhibition. `O=C(CSS(=O)(=O)O)c1ccccc1`
1

Param item = `Cc1cc(N(CCOS(C)(=O)=O)CCOS(C)(=O)=O)ccc1C=O` ; retrieve measured growth inhibition.
-43

What measured growth inhibition goes with `O=c1oc(C(C(F)(F)F)C(F)(F)F)nc2ccccc12` ?
-7

Using the record for `O=C(Cc1ccccc1F)NC1=C(Cl)C(=O)c2ccccc2C1=O` , report its growth inhibition.
-8

Given `CCOC(=O)C1=C(C)NC(C)=C(C(=O)OCC)C1c1ccc(Cl)cc1` , state its recorded growth inhibition.
74

growth inhibition for CCOC(=O)C(NC(=O)c1ccccc1)[CH](c1ccccc1)[Sn]([c]1ccccc1)([c]1ccccc1)[c]1ccccc1 (stereo unspecified) ?
-1

growth inhibition lookup needed for CC(O)CN1C(=O)c2cccc3cc([N+](=O)[O-])cc(c23)C1=O (stereo unspecified) , thanks.
-13

Given `O=C(O)[C@H]1[C@@H](C2CCCCC2)O[C@@H](C2CCCCC2)O[C@H]1C(F)(F)F` , state its recorded growth inhibition.
-3

Look up growth inhibition for this molecule: `CCCC(=O)OC(OC(=O)CCC)c1ccc([N+](=O)[O-])o1`
-3

Requested field: growth inhibition. Item: O=C1c2ccccc2-c2ccc(NC(=O)C3CCCCC3C(=O)O)cc21 (stereo unspecified)
1

Find the recorded growth inhibition belonging to CC1C=CN(N(C)C)C2=C1C(=O)c1cnccc1C2=O (stereo unspecified) and report it.
43

Dear colleague, I am looking for the recorded growth inhibition of the following molecule: `COc1ccc(CCN2C(=O)C=CC2=O)cc1OC`
48

If you can, please state the reported growth inhibition value of [N-]=[N+]=NC1CC(n2ccc(=O)[nH]c2=O)OC1COC(c1ccccc1)(c1ccccc1)c1ccccc1 (stereo unspecified) .
23

Please give the measured growth inhibition for this molecule: `CN(NC(=O)/C(=C/C=C/c1ccccc1)NC(=O)c1ccccc1)C1=C(Cl)C(=O)[N+](c2ccccc2)=CC1`
19
